Test system: Acinetobacter baumannii
Conditions: Concentration 300 ug.mL-1; ASSAY_TEST Inhibition of Bacterial Growth; detection method Absorption (OD600); MEDIA CAMHB; plate type 384well; NBS; CORNING #3640; time 18 hr
Description: Antibacterial activity against Acinetobacter baumannii ATCC 19606 (CO-ADD:GN_034); MIC in CAMBH media using NBS plates, by OD600
Hit rate of the full screen: of about 21,000 compounds, fewer than 10 showed an effect of 50% or more. A selection follows. Entries with a potency or affinity are not part of this list.
Please go through the items and note down their Inhibition.
Numbers only, in %.

Solved entries:
compound	assay endpoint	observed value
CN(C)c1nccc(N(C)CCn2cccn2)n1	Inhibition	7.7
C1CC(C2CCOC2)CCN1 (configuration not stated)	Inhibition	9.96
COC(=O)CN1CCN(C(=O)N(C)C)CC1	Inhibition	20.07
CCC(C)(CO)NC(=O)c1sc(COC)nc1C (configuration not stated)	Inhibition	6.56
CCN(C(=O)CN1CCNC(=O)C1)c1ccc(F)cc1	Inhibition	7.47
CN(CCN1CCCC1=O)C(=O)c1ccc(Br)cc1O	Inhibition	1.38
CCSc1nccc(N)n1	Inhibition	18.01
Cc1ccc(OC2CCN(C(=O)[C@@H](C)N)CC2)cc1	Inhibition	3.78
CCN(C)CCNC(=O)c1ccncc1I	Inhibition	5.97
CS(=O)(=O)C[C@H]1CCCN1	Inhibition	4.73

Quick batch: Inhibition for everything below.
1. O=C(CCN1CCOCC1)Nc1cccc(Cl)c1
2. CN(CCCS(C)(=O)=O)CC1CCN(CCO)CC1

*A*
1. 5.94
2. 0.5

Quick batch: Inhibition for everything below.
1. O=C(Nc1cccc(CN2CCCC2=O)c1)C1CC1
2. CCNS(=O)(=O)C1CCN(Cc2cc(F)cc(F)c2)C1 (configuration not stated)
3. COCC(=O)Nc1ccc(-n2cccn2)nc1
4. COc1ccc(CC(=O)NCC(C)C)c(OC)c1
5. O=C(C1CCC1)N(Cc1ccccn1)C1CC1
6. COCC(=O)N1CCN(Cc2csc(C)n2)CC1
7. CN[C@@H](CC(C)C)C(=O)NCCCc1csc(N)n1

*A*
1.2
-0.23
-2.46
9.02
0.99
2.61
-8.08

Quick batch: Inhibition for everything below.
1. CCc1nccn1CCNC(=O)Cc1nonc1C
2. Cc1cc(C)cc(OCC(=O)N2CCN[C@H](C)C2)c1

*A*
6.19
8.4

Quick batch: Inhibition for everything below.
1. CCC(=O)N1CCN(C(=O)CC2CCCCC2)CC1
2. COCCOCC(=O)N(C)C(C)c1ccncn1 (configuration not stated)
3. CC(C)(C)OC(=O)N1CC(O)C1
4. CC(=O)N1CCCC(C(=O)NCCc2nnc(C)s2)C1 (configuration not stated)
5. O=C(NC1CCCOC1)c1ccc2c(c1)OCCO2 (configuration not stated)
6. CSCC(=O)NC1CCCC1
7. CN(C)c1cc(CN)ccn1

*A*
[6.05, 0.44, 5.37, 6.35, 9.3, 5.49, 11.49]

---

Test system: Acinetobacter baumannii
Settings: Concentration 300 ug.mL-1; ASSAY_TEST Inhibition of Bacterial Growth; detection method Absorption (OD600); MEDIA CAMHB; plate type 384well; NBS; CORNING #3640; time 18 hr
Among all 21,000 compounds or so, fewer than 10 showed an effect of 50% or more. These entries were drawn from the full list. Potency and affinity values are given separately.
assay endpoint: Inhibition (%)
One number for each entry, in %.

Solved entries:
compound	Inhibition (%)
CNC(=O)CSc1nnc(C2CC2)n1C	5.97
NC(c1ccc(Cl)cc1)c1ncon1 (stereo not drawn)	6.75
Cc1cccc(C2NCCNC2=O)c1 (stereo not drawn)	12.66
CC(=O)N(C)CC(=O)Nc1ccccc1N1CCCC1	8.57
COc1ccc(SCC(=O)NC2CCN(C)CC2)cc1	2.47
CCN(C(=O)C(C)O)C1CCCCC1 (stereo not drawn)	7.15
O=C1NCCCCC1NS(=O)(=O)N1CCOCC1 (stereo not drawn)	3.3
CC1=C(c2ccco2)CN(CC(N)=O)CC1	3.95
CCCS(=O)(=O)N1C[C@@H](CN(C)CCO)[C@@H](CO)C1	1.24
CCN(C(=O)c1ccc(-c2ccco2)[nH]c1=O)C1CC1	3.27

Quick batch: Inhibition for everything below.
1. CC1Cc2ccccc2N1CCN (stereo not drawn)
2. O=S(=O)(CCN1CCN(c2nccs2)CC1)C(F)(F)F
3. CNC(=O)c1cccc(NCc2cccnc2)n1

*A*
14.26
11.95
1.67
